src = PubChem BioAssay (NCI)

# System: CAKI-1 renal
# runDescription: NCI tumour cell line growth inhibition, 48 h; in the data active = GI50 below about 0.43 µM; inactive = the rest
Classes used: active, inactive

1. Oc1c(Cl)cc(Cl)c2cccnc12 ... inactive
2. CN(c1ccc(C#N)c(Cl)c1)C1CCC(NC(=O)c2ccc(N3CCN(C4CN(c5ccc6c(c5)C(=O)N(C5CCC(=O)NC5=O)C6=O)C4)CC3)cc2)CC1 (stereo not given) ... inactive
3. Cc1cccc2c(Nc3ccc(NS(C)(=O)=O)cc3)c3ccc([N+](=O)[O-])cc3nc12 ... inactive
4. CC/C=C\C/C=C/C=C1/C(=O)C=C[C@@H]1C/C=C\CCCC(=O)OC ... inactive
5. Nc1n[nH]c2ccc([C@@H]3Nc4cc5[nH]ncc5cc4[C@H]4C5CCC(C5)[C@@H]34)cc12 (stereo not given in full) ... active
6. N.N.N.N.N.O=S(=O)([O-])C(F)(F)F.O=S(=O)([O-])C(F)(F)F.[Os+8] ... inactive
7. C=CCCCOC1[C@H](OCc2ccccc2)C(OCc2ccccc2)C(OC)O[C@@H]1CNC(=O)c1cccc(I)c1 (stereo not given in full) ... inactive
8. CCOC1OC(=O)[C@H]2[C@@H]1[C@@H]1CC[C@H]2O1 (stereo not given in full) ... inactive
9. CCSc1nc(N)c(C#N)c(-c2ccco2)c1C#N ... inactive
10. CC(=O)[CH-]C(=O)Nc1ccccc1.CC(=O)[CH-]C(=O)Nc1ccccc1.CC[O-].CC[O-].[Ti+4] ... inactive

---

# Test system: BT-549 breast
# runDescription: NCI tumour cell line growth inhibition, 48 h
I would appreciate it if you labelled entries 1 when TGI is 40 µM or higher, otherwise -1.

1) CC1(C)CC2=C(Sc3ccccc3N2)C(=O)C1C(=O)C(=O)Nc1cc(Cl)ccc1Cl (centres undefined) ... 1
2) ONC1=Nc2ccccc2OCc2cc(Br)c(Br)cc2COc2ccccc2N=C1NO ... 1
3) CCOC(=O)C1=C(C)N2C(=NC3=C(CCC/C3=C\c3ccc(Cl)cc3)C2c2ccc(Cl)cc2)S1 (centres undefined) ... -1
4) CC(=O)OC(C)C(OC(C)=O)C(OC(C)=O)C(/C=C/C1CC=CC(=O)O1)OC(C)=O (centres undefined) ... 1
5) C=C1CC[C@@H]2[C@](C)(COC(C)=O)[C@H](OC(C)=O)CC[C@@]2(C)[C@@H]1CC(Nc1ccc(S(=O)(=O)Nc2nccs2)cc1)C1=CCOC1=O (some centres undefined) ... -1
6) N=C(N)SCCCN ... 1
7) CCN(C(=O)CN1CCN(c2cc3c(cc2F)c(=O)c(C(=O)O)cn3CC)CC1)c1nc(-c2ccccc2)cs1 ... 1
8) O=S(=O)(O)c1cc(O)c2c(O)c(N=Nc3cccc4ccccc34)c(S(=O)(=O)O)cc2c1 ... 1
9) COc1cc(/C=C2\Cc3cc(OC)c(OC)cc3C2=O)cc(OC)c1 ... 1

---

# Tested on: MDA-MB-231 breast
# runDescription: NCI tumour cell line growth inhibition, 48 h
assayMetric: TGI

1) CC(=O)O.CC(=O)O.CC(=O)O.CC(=O)O.[Rh].[Rh] ... > 100 µM
2) COc1ccc2c(c1)/C(=C\c1c[nH]c3ccc(OC)cc13)C(=O)N2 ... 6.32 µM
3) Cc1cc(S(=O)(=O)Nc2nc3ccccc3n2-c2ccccc2)c(S)cc1Cl ... > 100 µM
4) Oc1ccc(Cl)cc1C1=N/C(=N\C/N=C2\N=C(c3cc(Cl)ccc3O)CC(c3ccccc3)N2)NC(c2ccccc2)C1 (stereo not given) ... > 100 µM
5) C=CCCCOC1[C@H](OCc2ccccc2)C(OCc2ccccc2)C(OC)O[C@@H]1CNC(=O)c1cccc(I)c1 (stereo not given in full) ... > 100 µM

---

# System: SF-539 CNS
# runDescription: NCI tumour cell line growth inhibition, 48 h
assayMetric: TGI (µM)

1) CC/C=C\C/C=C/C=C1/C(=O)C=C[C@@H]1C/C=C\CCCC(=O)OC ... 10
2) NNc1c2ccccc2nc2ccccc12 ... 22.9
3) CCN(CC)CCC(CNc1c(C)cnc2cc(Cl)ccc12)c1ccc(Cl)cc1 (stereo not given) ... 3.31

---

# Tested on: OVCAR-5 ovarian
# runDescription: NCI tumour cell line growth inhibition, 48 h
assayMetric: TGI

1. COc1cccc(CC(C)=C(c2ccc(OCCCN(C)C)cc2)c2ccc(OCCCN(C)C)cc2)c1 ... 2.06 µM
2. CN(C)Cc1cc(C(=O)/C=C/c2cccc(Cl)c2)cc(CN(C)C)c1O ... 19 µM
3. CC(C)(C)c1cc(C(=O)/C=C/c2ccn[nH]2)cc(C(C)(C)C)c1O ... 13.6 µM
4. COC(=O)C#CCC1CCCC1C1SCCS1 (stereo not given) ... > 100 µM
5. Nc1n[nH]c(N)c1N=Nc1ccc(O)cc1 ... > 100 µM
6. O/N=C1/C2CC3CC1(c1ccccc1)CC(/C3=N/O)/C2=N\O (stereo not given) ... > 100 µM
7. NC(=O)C12CC3CC(CC(Br)(C3)C1)C2 ... > 100 µM
8. CCN(CC)CCC(CNc1c(C)cnc2cc(Cl)ccc12)c1ccc(Cl)cc1 (stereo not given) ... 24 µM
9. O=C(Nc1ccccc1Cl)c1cccc(NC2=C(Cl)C(=O)N(Cc3ccccc3)C2=O)c1 ... > 100 µM
10. CC1C2CC(C/C2=N/O)C1(C)C (stereo not given) ... > 100 µM
11. O=C(N/C(=C\c1cc(Cl)ccc1Cl)c1nc2ccc(Cl)cc2[nH]1)c1ccccc1 ... 60.1 µM
12. COc1cc(OC)c2c(O)c(S(=O)(=O)c3ccc(C)cc3)c(=O)oc2c1 ... > 100 µM
13. O=[N+]([O-])c1ccc2c(Nc3ccccc3-c3ccccc3Nc3c4ccccc4nc4cc([N+](=O)[O-])ccc34)c3ccccc3nc2c1 ... 56.8 µM
14. O=c1c(-c2ccccc2)coc2cc(OC/C(=N/O)c3ccc(F)cc3)ccc12 ... 43.8 µM
15. CC(=O)CC(C)(C)NC(=O)[C@@]1(O)CC[C@H]2[C@@H]3CCC4=CC(=O)CC[C@@H]4[C@H]3CC[C@@]21C ... > 100 µM
16. C=C(Br)CNCC(=C)Br ... > 100 µM
17. Cc1ccc(N=C2SC(c3ccc(C)cc3)(c3ccc(C)cc3)c3ccccc32)cc1 ... > 100 µM
18. COc1cc2c(cc1-c1coc3cc(OCC=C(C)C)ccc3c1=O)OCO2 ... > 100 µM
19. Nc1ccc(C(=O)N/C(=C\c2cccc([N+](=O)[O-])c2)c2nc3ccc(Cl)cc3[nH]2)cc1 ... > 100 µM
20. Cn1nnc2c(C(N)=O)ncn2c1=O ... > 100 µM
21. NC(=O)c1cccc(-c2cc(C(N)=O)ccc2Cl)c1 ... > 100 µM
22. Nc1n[nH]c2ccc([C@@H]3Nc4cc5[nH]ncc5cc4[C@H]4C5CCC(C5)[C@@H]34)cc12 (stereo not given in full) ... > 80.9 µM
23. N#CC1(c2ccccc2)CCN(C2(c3ccccc3)CCCCC2)CC1 ... > 100 µM
24. COC(=O)/C(=C\c1ccco1)P(=O)(OC)OC ... 31.8 µM
25. N#CC(C#N)=C(N)/C(C#N)=C/c1ccc2[nH]ccc2c1 ... > 100 µM

---

# System: COLO 205 colon
# runDescription: NCI tumour cell line growth inhibition, 48 h; in the data active = GI50 below about 0.43 µM; inactive = the rest
Classes used: t (active), f (inactive)

1. C=C1CC[C@@H]2[C@](C)(COC(C)=O)[C@H](OC(C)=O)CC[C@@]2(C)[C@@H]1CC(Nc1ccc(S(=O)(=O)Nc2nccs2)cc1)C1=CCOC1=O (some centres undefined) ... f
2. CCN1C(=O)N(CC)C2C1NN=c1s/c(=C\c3ccc[nH]3)c(=O)n12 (centres undefined) ... t
3. O=c1c(O)cccn1CCCN(CCCn1cccc(O)c1=O)CCn1cccc(O)c1=O ... f
4. O=C(NN1C(=O)CSC1c1ccc(F)cc1)C(O)c1ccccc1 (centres undefined) ... f
5. CC/C=C\C/C=C/C=C1/C(=O)C=C[C@@H]1C/C=C\CCCC(=O)OC ... f
6. CC(=O)[CH-]C(=O)Nc1ccccc1.CC(=O)[CH-]C(=O)Nc1ccccc1.CC[O-].CC[O-].[Ti+4] ... f
7. COc1cccc(CC(C)=C(c2ccc(OCCCN(C)C)cc2)c2ccc(OCCCN(C)C)cc2)c1 ... f
8. CCSc1nc(N)c(C#N)c(-c2ccco2)c1C#N ... f
9. NC(=O)c1cccc(-c2cc(C(N)=O)ccc2Cl)c1 ... f

---

# Tested on: DU-145 prostate
# runDescription: NCI tumour cell line growth inhibition, 48 h; in the data active = GI50 below about 0.43 µM; inactive = the rest
Classes used: y for active, n for inactive

1. CCN(C(=O)CN1CCN(c2cc3c(cc2F)c(=O)c(C(=O)O)cn3CC)CC1)c1nc(-c2ccccc2)cs1 ... n
2. Cc1ccc(Sc2oc(-c3ccc(C)cc3)nc2[P+](c2ccccc2)(c2ccccc2)c2ccccc2)cc1 ... y
3. Nc1n[nH]c2ccc([C@@H]3Nc4cc5[nH]ncc5cc4[C@H]4C5CCC(C5)[C@@H]34)cc12 (stereo partly drawn) ... y
4. O=C1CCC(N2C(=O)c3cccc(NCCCC4CCN(CCNC(=O)c5cc6c(o5)C(=O)c5ccccc5C6=O)CC4)c3C2=O)C(=O)N1 (stereo not drawn) ... y
5. COc1ccc(Oc2ccccc2NC(=O)CNC(=O)c2cccc3ccccc23)cc1 ... n
6. OCc1ccc(N2CCCC2)cc1Cl ... n
7. O=C(NN1C(=O)CSC1c1ccc(F)cc1)C(O)c1ccccc1 (stereo not drawn) ... n
8. O=c1c(-c2ccccc2)coc2cc(OC/C(=N/O)c3ccc(F)cc3)ccc12 ... n
